# assay name: Plasma pharmacokinetics (LC-MS/MS)
# Assay type: in vivo, human
# measurement context: human, plasma, oral, 10 mg, cycle 2, day 1; QDx5dQW 10 mg; read-out: AUC0–24h [%CV]
measured endpoint: AUC(0-t) (ng·h/mL)
Write down the numeric answer in ng·h/mL and omit the unit.

[Q] Complete the entry with AUC(0-t) for CC(C)n1nc(-c2ccc3oc(N)nc3c2)c2c(N)ncnc21
[A] 366

----------
# assay name: Plasma pharmacokinetics (LC-MS/MS)
# Format: in vivo, human
# measurement context: human, plasma, oral, 30 mg, cycle 1, day 1; 30 mg
measured endpoint: Cmax (ng/mL)
Write down the numeric answer in ng/mL and omit the unit.

[Q] Complete the entry with Cmax for CC(C)n1nc(-c2ccc3oc(N)nc3c2)c2c(N)ncnc21 [Sapanisertib]
[A] 162

----------
# assay name: Plasma pharmacokinetics (LC-MS/MS)
# Assay type: in vivo, human
# measurement context: human, plasma, oral, 13 mg, cycle 1, day 1; 13 mg
measured endpoint: Cmax (µg/mL)
Write down the numeric answer in µg/mL and omit the unit.

[Q] Complete the entry with Cmax for CC(C)n1nc(-c2ccc3oc(N)nc3c2)c2c(N)ncnc21 [Sapanisertib]
[A] 0.0936

----------
# assay name: Plasma pharmacokinetics (LC-MS/MS)
# Format: in vivo, human
# measurement context: human, plasma, oral, 10 mg, cycle 2, day 1; QDx5dQW 10 mg
measured endpoint: Cmax (ng/mL)
Write down the numeric answer in ng/mL and omit the unit.

[Q] Complete the entry with Cmax for CC(C)n1nc(-c2ccc3oc(N)nc3c2)c2c(N)ncnc21
[A] 57

----------
# assay name: Plasma pharmacokinetics (LC-MS/MS)
# Format: in vivo, human
# measurement context: human, plasma, oral, 7 mg, cycle 2, day 1; QD 7 mg; read-out: t½ (converted)
measured endpoint: half-life (h)
Write down the numeric answer in h and omit the unit.

[Q] Complete the entry with half-life for CC(C)n1nc(-c2ccc3oc(N)nc3c2)c2c(N)ncnc21 [Sapanisertib]
[A] 5.63

----------
# assay name: Plasma pharmacokinetics (LC-MS/MS)
# Format: in vivo, human
# measurement context: human, plasma, oral, 4 mg, cycle 2, day 1; QD 4 mg; read-out: Tmax, median
measured endpoint: Tmax (h)
Write down the numeric answer in h and omit the unit.

[Q] Complete the entry with Tmax for CC(C)n1nc(-c2ccc3oc(N)nc3c2)c2c(N)ncnc21
[A] 3.8

----------
# assay name: Plasma pharmacokinetics (LC-MS/MS)
# Assay type: in vivo, human
# measurement context: human, plasma, oral, 7 mg, cycle 2, day 1; QW 7 mg; read-out: t½ (converted)
measured endpoint: half-life (min)
Write down the numeric answer in min and omit the unit.

[Q] Complete the entry with half-life for CC(C)n1nc(-c2ccc3oc(N)nc3c2)c2c(N)ncnc21 [Sapanisertib]
[A] 336

----------
# assay name: Plasma pharmacokinetics (LC-MS/MS)
# Assay type: in vivo, human
# measurement context: human, plasma, oral, 12 mg, cycle 2, day 1; QDx3dQW 12 mg; read-out: Tmax, median
measured endpoint: Tmax
Dear colleague, please send the value followed by its unit.

[Q] Complete the entry with Tmax for CC(C)n1nc(-c2ccc3oc(N)nc3c2)c2c(N)ncnc21
[A] 3.7 h

----------
# assay name: Plasma pharmacokinetics (LC-MS/MS)
# Type: in vivo, human
# measurement context: human, plasma, oral, 7 mg, cycle 2, day 1; QD 7 mg; read-out: Tmax, median
measured endpoint: Tmax (h)
Write down the numeric answer in h and omit the unit.

[Q] Complete the entry with Tmax for CC(C)n1nc(-c2ccc3oc(N)nc3c2)c2c(N)ncnc21 [Sapanisertib]
[A] 4
